# maps each entry to its T/C
System: L1210 leukemia ip in BDF1 mice, survival T/C
Experiment summary: NCI In Vivo Anticancer Drug Screen. Data for tumor model L1210 Leukemia (intraperitoneal) in B6D2F1 (BDF1) mice
Experimental parameters: endpoint: mean survival time; dose: 200.0 mg/kg/injection; schedule: Q01DX009 (ip); vehicle: Klucel (hydroxypropylcellulose) (HPC); higher = longer survival
Toxic doses and inconclusive results are not listed.
Experimental endpoint: T/C

[
  {
    "Molecular string": "CSc1ccc(OC(=O)Nc2ccc(C)cc2[N+](=O)[O-])cc1",
    "Result": "100 % of control"
  },
  {
    "Molecular string": "CC(C)(C)c1ccc(OC(=O)Nc2cc(C(F)(F)F)ccc2Cl)c(Br)c1",
    "Result": "97 % of control"
  },
  {
    "Molecular string": "Cc1ccccc1NC(=O)Nc1ccc(S(N)(=O)=O)cc1",
    "Result": "101 % of control"
  }
]

Reference source for all entries: PubChem BioAssay AID248
